Values from PubChem BioAssay (NCI)

Tested on: M14 melanoma
Assay: NCI tumour cell line growth inhibition, 48 h
Below, each of the compounds is paired with its reported TGI value.
Form entry: value (µM) — number only.

CCNCCOc1ccc(/C(=C(/CC)c2ccc(Cl)cc2)c2ccc(OCCCN(C)C)cc2)cc1
8.31
CC(=O)Nc1cc(F)cc(-c2ccc3[nH]cc(-c4ccccc4)c3n2)c1
7.85

Here's the next entry for you.
Problem: Please give the measured TGI for this compound: CN(C)CCCNc1c2ccc(Cl)cc2nc2c1oc1ccccc12
Solution: 3.45
